# Experimental conditions: in ethyl acetate, 289.95 K
Measurement type: solubility (mole fraction)

What value of solubility (mole fraction) has been reported for the following compound? `Cc1ccc(C)c(O)c1`
0.449

----------
# Experimental conditions: in ethyl acetate, 309.95 K
Measurement type: solubility (mole fraction)
Answers are plain numbers.

Which solubility (mole fraction) is listed for `Cc1ccc(C)c(O)c1` ?
0.563

----------
# Experimental conditions: in n-butanol, 298.9 K
Measurement type: solubility (mole fraction)
Numbers only.

Please report the recorded solubility (mole fraction) for `Cc1ccc(C)c(O)c1` .
0.408

----------
# Experimental conditions: in n-butanol, 285.65 K
Measurement type: solubility (mole fraction)
Answers are plain numbers.

Entry under review: `Cc1ccc(C)c(O)c1` . Reported solubility (mole fraction)?
0.331

----------
# Experimental conditions: in n-butanol, 311.65 K
Measurement type: solubility (mole fraction)
Answers are plain numbers.

Give its solubility (mole fraction) value. Item: `Cc1ccc(C)c(O)c1`
0.501

----------
# Experimental conditions: in n-butanol, 289.9 K
Measurement type: solubility (mole fraction)
Answers are plain numbers.

For the compound `Cc1ccc(C)c(O)c1` , what solubility (mole fraction) is on record?
0.354

----------
# Experimental conditions: in n-hexanol, 331.05 K
Measurement type: solubility (mole fraction)
Numbers only.

Requested field: solubility (mole fraction). Item: `Cc1ccc(C)c(O)c1`
0.707

----------
# Experimental conditions: in n-hexanol, 321.65 K
Measurement type: solubility (mole fraction)
Give bare numbers.

# input compound: `Cc1ccc(C)c(O)c1` ; wanted: its solubility (mole fraction)
0.598

----------
# Experimental conditions: in n-butanol, 317.25 K
Measurement type: solubility (mole fraction)
Give bare numbers.

# get_value(readout='solubility (mole fraction)', item= `Cc1ccc(C)c(O)c1` )
0.551

----------
# Experimental conditions: in methanol, 299.45 K
Measurement type: solubility (mole fraction)
Give bare numbers.

What measured solubility (mole fraction) goes with `Cc1ccc(C)c(O)c1` ?
0.381

----------
# Experimental conditions: in n-hexanol, 296.65 K
Measurement type: solubility (mole fraction)
Answers are plain numbers.

Report solubility (mole fraction) for `Cc1ccc(C)c(O)c1` please.
0.4

----------
# Experimental conditions: in ethyl acetate, 304.35 K
Measurement type: solubility (mole fraction)
Answers are plain numbers.

What value of solubility (mole fraction) has been recorded for this entry: `Cc1ccc(C)c(O)c1`
0.529

----------
# Experimental conditions: in methanol, 293.75 K
Measurement type: solubility (mole fraction)

Need solubility (mole fraction) of `Cc1ccc(C)c(O)c1` , thanks.
0.342

----------
# Experimental conditions: in n-hexanol, 310.75 K
Measurement type: solubility (mole fraction)
Answers are plain numbers.

Could you tell me which solubility (mole fraction) is on file for `Cc1ccc(C)c(O)c1` ?
0.498

----------
# Experimental conditions: in methanol, 289.15 K
Measurement type: solubility (mole fraction)
Numbers only.

Tell me the measured solubility (mole fraction) of `Cc1ccc(C)c(O)c1` , please.
0.315

----------
# Experimental conditions: in n-hexanol, 288.75 K
Measurement type: solubility (mole fraction)
One number for each entry.

Need solubility (mole fraction) of `Cc1ccc(C)c(O)c1` , thanks.
0.356

----------
# Experimental conditions: in methanol, 305.85 K
Measurement type: solubility (mole fraction)
Answers are plain numbers.

I am curious: what solubility (mole fraction) value has been reported for `Cc1ccc(C)c(O)c1` ?
0.425

----------
# Experimental conditions: in n-hexanol, 326.55 K
Measurement type: solubility (mole fraction)
One number for each entry.

// solubility (mole fraction) lookup, key: `Cc1ccc(C)c(O)c1`
0.652
